# experimental-target: T1, human CD3 expressed on cells (human, UniProt P07766 23-207; P04234 22-171; P09693 23-182)
# T1 construct: whole, on cells; CD3 complex on Jurkat cells and on human primary T cells
# T1 sequence (P07766 23-207, chain 1 of 3): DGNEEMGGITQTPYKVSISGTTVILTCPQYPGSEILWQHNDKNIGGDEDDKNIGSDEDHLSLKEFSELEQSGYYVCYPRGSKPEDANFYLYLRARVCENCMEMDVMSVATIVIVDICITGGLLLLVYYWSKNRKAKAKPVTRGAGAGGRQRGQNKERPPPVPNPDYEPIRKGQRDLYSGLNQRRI
# T1 sequence (P04234 22-171, chain 2 of 3): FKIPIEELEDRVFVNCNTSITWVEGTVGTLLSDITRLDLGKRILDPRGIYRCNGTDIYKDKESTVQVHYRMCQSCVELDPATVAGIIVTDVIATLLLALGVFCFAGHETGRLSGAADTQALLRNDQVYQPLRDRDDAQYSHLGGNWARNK
# T1 sequence (P09693 23-182, chain 3 of 3): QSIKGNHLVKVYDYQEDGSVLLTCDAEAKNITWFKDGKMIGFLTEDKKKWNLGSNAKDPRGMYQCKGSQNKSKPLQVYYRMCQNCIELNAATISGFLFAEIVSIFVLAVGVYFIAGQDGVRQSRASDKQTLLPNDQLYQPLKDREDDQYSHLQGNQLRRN
# test: flow cytometry, 25 nM
So I've got a bunch of binders here, and I need their Jurkat Cell Binding (FOI) values.
Numeric answer only, unit FOI assumed.

Request: Need Jurkat Cell Binding (FOI), item mAb 143 (antibody, V domains shown) VH: QVQLMQSGSELEKPGASVKVSCKASGYTFTSFAINWVRQAPGQGLEWMGWINTITGNPSYAQGFTGRFVFSLDTSVTTAFLQINSLKTEDTAVYYCARYVTSSGKFDYWGQGTLVTVSS VL: DIQMTQSPSSVSASVGDRVTITCRASRGISRWLDWYQQKPGKAPKLLIYAASNLQGGVPSRFSGSGSGTDFTLTIRSLQPEDFAIYYCQQAKTFPFTFGPGTKVDIK
Response: 15.5

Request: Item under review: mAb 128 (antibody, V domains shown) VH: EVQLVESGGGLVQPGRSLRLSCAASGFTFDDYTMHWVRQAPGKGLEWVSGISWNSGSIGYADSVKGRFTISRDNAKNSLYLQMNSLRAEDTALYYCAKDSSGYGYYYYYSMDVWGKGTTVTVSS VL: EIVMTQSPATLSVSPGERATLSCRASQSVSSNLAWYQQKPGQAPRLLIYGASTRATGIPARFSGSGSGTEFTLTISSLQSEDFAVYYCQLYYNWPHFGQGTRLAIK . Reported Jurkat Cell Binding (FOI)?
Response: 97.1

Request: Look up Jurkat Cell Binding (FOI): mAb 94 (antibody, V domains shown) VH: QVHLVESGGGVVQPGRSLRLSCSASGFTFSGYGMHWVRQAPGKGLEWVALIYFDGRNKYYADSVKGRFTISRDNSKNTLYLQMNSLRAEDTAVYYCARGGGYNWFDPWGQGTLVTVSS VL: DIQMTQSPSSLSASVGDRVTITCRASQSISNYLNWYQQKPGKAPKLLIYLASSLQSGVPSRFSGSGSGTDFTLTINSLQPEDFASYYCQLSYSSPFTFGPGTKVDVN
Response: 170
